- Tested on: HCT-116 colon
- Experiment description: NCI tumour cell line growth inhibition, 48 h
Readout type: TGI

Cc1cccc(N(C)C(=O)[C@@H]2[C@H](O)CCN2c2nc(C)cc(C(F)(F)F)c2C#N)c1: 29 µM

// each listed compound needs a value for TGI
1. COc1ccc(N=N/C(=N/NC(=O)c2ccc(C)cc2)c2ccc(N(CCC#N)CCC#N)cc2OC)cc1
2. O=C(O)c1ccc(C(=O)c2ccccc2C(=O)O)cc1C(=O)O
3. CCN(CC)c1ccc(/C=N/NC(=O)CSc2nc3ccccc3c(=O)n2CCc2ccc(S(N)(=O)=O)cc2)c(O)c1
4. O=C1NC(Cc2ccc(O)cc2)C(=O)N2CCCC12 (configuration not stated)
5. CN(C)CCCc1cccc2[nH]c3c(c12)CN(C)CC3
6. COC(=O)C1CCC(=O)N1CN(C(C)=O)c1ccccc1Cl (configuration not stated)
7. CC(C)=CCC[C@]1(C)C=Cc2c(O)c3c(c(CC=C(C)C)c2O1)O[C@]12C(=C[C@@H]4CC1C(C)(C)O[C@@]2(C/C=C(/C)C(=O)O)C4=O)C3=O
8. Nc1ncnc2c1ncn2[C@]1(CO)C=C(CO)C(O)C1O (some centres not stated)

Result:
1. > 100 µM
2. > 100 µM
3. 10.7 µM
4. > 100 µM
5. > 100 µM
6. > 100 µM
7. 1.5 µM
8. > 100 µM

For each of the items listed, what is its TGI?
1. C[N+]1(CCC(=O)c2ccco2)CC2CCC(CC2)C1 (configuration not stated)
2. COc1ccccc1NC(=S)N/N=C/c1c(C)n(C)n(-c2ccccc2)c1=O
3. OC(c1ccc(F)cc1)C(F)(F)c1nc2ccccc2o1 (configuration not stated)
4. Cc1nc([P+](c2ccccc2)(c2ccccc2)c2ccccc2)c(Sc2sc(-c3ccccc3)nc2[P+](c2ccccc2)(c2ccccc2)c2ccccc2)o1
5. CCOC(=O)/C(=C/N1CCN(C(=O)c2ccco2)C1=S)C(=O)c1ccccc1
6. CC(=O)Nc1c(S(=O)(=O)c2ccccc2)c(C)c(C)n1CCN(C)C
7. CC1=Nc2ccccc2S/C1=C(/C)NNS(=O)(=O)c1ccc(C)cc1
8. CC(Nc1ncc2c(n1)-c1ccccc1OC2)C(=O)O (configuration not stated)

Result:
["> 100 µM", "> 100 µM", "> 100 µM", "2.94 µM", "23.7 µM", "> 100 µM", "> 100 µM", "> 100 µM"]
